Values compiled from the RNAGym collection of RNA variant scans (doi:10.7554/elife.90254).

Entries and their self-cleavage values follow.
B1: OR4K15 (parent)
chain: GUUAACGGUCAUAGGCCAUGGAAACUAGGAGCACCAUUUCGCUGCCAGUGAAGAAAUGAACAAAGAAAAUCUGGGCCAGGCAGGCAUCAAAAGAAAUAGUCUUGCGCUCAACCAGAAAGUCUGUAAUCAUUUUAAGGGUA

variants of: B1; experiment: self-cleavage, relative activity (ratio to wild type); higher = more cleavage; in vitro, sequencing; the parent is a self-cleaving ribozyme
observation-type: self-cleavage

>>> df
      mutations  reported_result
 0    A63G A86G             1.47
 1         G20C             1.88
 2    G21A A51G             1.66
 3    U49A A63G             1.46
 4    A18G U57A                1
 5    A11U A82G             0.63
 6  U102G U120A             0.77
 7     A5G A94U              0.8
 8     U3A A64C             1.33
 9    A4G U124A             0.48
10   A36U G106A             0.02
11    G29A U87C              1.7
12    A13U G79A             0.19
13         G41A             1.67
14   A82C U131A             0.14
15   A55G A129U             1.43
16    A62U A94G             1.69
17   A78G G137U             0.25
18   A92G A125G             0.79
19   C16U A111U             0.16
20   U49A A117G             0.49
21    A60G C77U             2.13
